Here, compounds appear alongside pIC50 reported for Tyrosine-protein kinase JAK2 (Homo sapiens) in the literature.
pIC50: −log10 of the molar value.
readout: pIC50

N#CCCC(=O)NC12CC(n3cnc4cnc5[nH]ccc5c43)(C1)C2 :: 7.14
Cc1ccc(NC(=O)c2cc(C(F)(F)F)ccn2)cc1N1CCc2nc(Nc3ccc(C(=O)N4CCN(C)CC4)cc3)ncc2C1 :: 8.28
O=C(Nc1nc2cccc(-c3ccc(CN4CCC(F)(F)CC4)cc3)n2n1)C1CC1 :: 7.81
CCN1CCN(Cc2cc(NC(=O)c3ccc(C)c(Oc4ccc5nc(NC(=O)C6CC6)sc5n4)c3)cc(C(F)(F)F)c2)CC1 :: 5.55
CCNC(=O)N[C@H]1CC[C@H](N(C)c2ncnc3[nH]ccc23)CC1 :: 6.90
Cc1ccc(NC(=O)CCC(F)(F)F)cc1N1CCc2nc(Nc3ccc(C(=O)N4CCN(C)CC4)cc3)ncc2C1 :: 7.34
